Record form. Attribute: %Inh. Fill in for each entry.
system: PRKCD; details: concentration: 1 μM, replicates: in singlicate; n = 1;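 note: KINOMEscan kinase panel screen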
Answer with the figure and its unit, nothing else.

{"Compound": "Cn1cc(-c2ccc3c(c2)CCN3C(=O)Cc2cccc(F)c2)c2c(N)ncnc21 [GSK2603358]", "Result": "0%"}
{"Compound": "Clc1ccc(-c2nn3ncccc3c2-c2ccnc(Nc3ccc4c(c3)OCCO4)n2)cc1 [GW829116]", "Result": "0%"}
{"Compound": "CN1CCN(CCCNc2nccc(-c3c(-c4ccc(F)cc4)nn4cc(C(F)(F)F)ccc34)n2)CC1 [GW621581]", "Result": "7%"}
{"Compound": "Nc1ncnc2c1nc(-c1ccccc1)n2-c1ccccc1 [SKF-97293]", "Result": "14%"}
{"Compound": "O=C(Nc1n[nH]c2nc(-c3ccc(O)cc3)ccc12)C1CC1 [SB-710363]", "Result": "37%"}

Would you mind listing %Inh for each of the following compounds?
1. Oc1cc(Nc2ccnc3cc(I)ccc23)ccc1F [GW552771]
2. CNC(=O)c1ccccc1Nc1nc(Nc2ccc(N3CCOCC3)cc2)ncc1Cl.Cl [GSK1576028]
3. O=C(NC1CCN(c2ccnc(Nc3ccc(F)cc3)n2)C1)c1cc2ccccc2s1 (centres unmarked) [GSK1379716]
4. CN1CCN(Cc2cccc(-c3ccc4c(Nc5ccc(Oc6ccccc6)cc5)ccnc4c3)c2)CC1 [GW578342]
5. C[C@@H]1CC[C@@H](C(=O)Nc2ccccc2)CN1c1cc(-c2ccc3c(N)n[nH]c3c2)nc(N)n1 [GSK2286062]
6. c1ccc(-c2cnc3nccnn23)cc1 [AH20685]
7. COc1cccc(C(=O)Nc2cccc(Oc3ccc4nc(NC(=O)C5CC5)cn4n3)c2)c1

1. 0%
2. 24%
3. 0%
4. 15%
5. 9%
6. 0%
7. 25%

----------
tested on: FGFR3; conditions: concentration: 1 μM, replicates: in singlicate; n = 1
Mark true (1) only when %Inh stays strictly below 5%. Values equal to the cut-off are false (0).

See these solved cases before continuing.
{"Compound": "Nc1ncc(-c2cccnc2)c2scc(-c3ccc4c(c3)CCN4C(=O)Cc3ccccc3)c12", "Answer Label": "false (0)"}
{"Compound": "Cc1cccc(NC(=O)Nc2ccc(Oc3ncnc4ccn(C)c34)cc2)c1", "Answer Label": "true (1)"}
{"Compound": "CCS(=O)(=O)c1ccc(OC)c(Nc2nccc(-c3c(-c4cccc(NC(=O)c5c(F)cccc5F)c4)nn4ncccc34)n2)c1", "Answer Label": "false (0)"}
{"Compound": "Cl.c1ccc(-c2ccc3c(Nc4ccc5[nH]ncc5c4)ccnc3c2)nc1", "Answer Label": "false (0)"}
{"Compound": "Cl.Cl.NCC(NCc1ccc(-c2ccnc3[nH]ccc23)s1)c1ccccc1 (stereo not drawn)", "Answer Label": "false (0)"}

A record lists COc1cc(Nc2ncc3c(C)nc(-c4cc5ccccc5[nH]4)n3n2)cc(OC)c1OC . Is its %Inh below 5%? false (0)

Check CCn1c(-c2nonc2N)nc2c(C#CC(C)(C)O)nc(OC[C@H](N)c3ccccc3)cc21 too. true (1)

Check CNC(=O)c1ccccc1Nc1nc(Nc2ccc(N3CCOCC3)cc2)ncc1Cl.Cl too. false (0)

----------
test system: MST1R; settings: concentration: 1 μM, replicates: in singlicate; n = 1
Mark Yes only when %Inh stays strictly below 40%. Values equal to the cut-off are No.

See these solved cases before continuing.
{"Compound": "COc1cccc(-c2ccc3c(NC(=O)C4CC4)n[nH]c3n2)c1 [SB-710903]", "Assay Target": "MST1R", "Answer Label": "Yes"}
{"Compound": "CC(=O)Nc1nc2cnc(Nc3cc(NC(=O)c4cccc(C5(C#N)CC5)c4Cl)ccc3C)nc2s1", "Assay Target": "MST1R", "Answer Label": "Yes"}
{"Compound": "Nc1ncc(-c2ccc3nccc(-c4ccncc4)c3c2)cc1S(=O)(=O)N1CCOCC1 [GSK1627798]", "Assay Target": "MST1R", "Answer Label": "Yes"}

A record lists Cl.Cl.NCC(C(=O)Nc1cc(Br)c(-c2ccnc3[nH]ccc23)s1)c1ccccc1 (centres unmarked) [GSK1269851] . Is its %Inh below 40%? No

Check c1ccc(-c2n[nH]cc2Nc2ccnc3ccccc23)nc1 [GW694077] too. Yes
